# Test system: Yap1 mRNA
# ASSAY_REMARKS: Antisense inhibition of human Yap1 in A-431 cells by cEt gapmers, single dose (Example 2, RTS4814)
# Format: cell-based
# EXPERIMENTAL_SETUP: Table 20; Yap1 mRNA, percent of untreated control; 3-10-3 cEt gapmers targeting SEQ ID NO.: 1 and 2
Marks after values point to notes of the source that are not given here. Strand notation (5' to 3'): a small letter for the sugar, then the base; units joined by * are phosphorothioate-linked, units joined directly phosphodiester-linked; [ ] holds rarer units or linkages, { } end groups; capitals alone tell only the bases. k = constrained ethyl (cEt); [5mC] = 5-methylcytosine; d = 2'-deoxy (DNA)
QUANTITY_NAME: YAP1 (% UTC)

## Task Please give the documented YAP1 (% UTC) of 1074662 (antisense kG*kG*kT*dA*dG*dA*dA*dT*dT*dT*d[5mC]*dA*dT*kT*kA*k[5mC]) [Compound 1074662]
## Result 30 % UTC

## Task Answer with the recorded YAP1 (% UTC) of 1074374 (antisense kT*kG*k[5mC]*dT*dT*dT*dG*dG*dT*dT*dG*dA*dT*kA*kG*kT) [Compound 1074374] only.
## Result 13 % UTC

## Task # return recorded YAP1 (% UTC) for input 1075686 (kG*kT*kA*dA*dT*dT*dA*d[5mC]*dA*dG*dT*dG*dT*k[5mC]*kT*k[5mC]; antisense) [Compound 1075686]
## Result 10 % UTC

## Task Respond only with YAP1 (% UTC) recorded for 1075910 (kG*kA*kA*dA*dT*dA*dA*dG*dG*dA*dG*dT*dA*kG*kG*kT; antisense) [Compound 1075910]
## Result 93 % UTC

## Task Please give measured YAP1 (% UTC) of the following entry: 1075654 (kT*kA*kT*dT*dA*dA*dG*dA*d[5mC]*dG*dA*dA*dT*k[5mC]*k[5mC]*kA; antisense) [Compound 1075654]
## Result 76 % UTC

## Task Report YAP1 (% UTC), nothing else, for this substance: 1075206 (antisense kT*kA*kT*dT*dA*dA*dA*dT*dG*dA*dG*d[5mC]*dA*k[5mC]*k[5mC]*kA) [Compound 1075206]
## Result 36 % UTC

## Task Return reported YAP1 (% UTC). Input substance: 1075174 (antisense k[5mC]*k[5mC]*kT*dG*dA*dA*dA*dA*dG*dA*d[5mC]*dA*dG*kT*k[5mC]*k[5mC]) [Compound 1075174]
## Result 74 % UTC

## Task Quote YAP1 (% UTC) reported for 1074438 (kG*kA*k[5mC]*dA*dT*dG*dA*dA*dG*d[5mC]*dA*dT*d[5mC]*kT*kG*kA; antisense) [Compound 1074438] please.
## Result 1* % UTC

## Task Respond only with YAP1 (% UTC) recorded for 1075622 (kT*k[5mC]*kT*dT*dA*dT*dA*d[5mC]*d[5mC]*dT*dA*dT*d[5mC]*kT*kT*k[5mC]; antisense) [Compound 1075622]
## Result 56 % UTC

## Task Given 1075558 (kA*kT*kA*dT*dT*dA*dA*dG*dG*dT*dG*dG*d[5mC]*kT*kT*kA; antisense) [Compound 1075558] , respond with its YAP1 (% UTC).
## Result 51 % UTC

====

# Test system: Yap1 mRNA
# ASSAY_REMARKS: Dose-dependent inhibition of human Yap1 in A-431 cells (Example 7, 10,000 cells per well, RTS36584)
# Type: cell-based
# EXPERIMENTAL_SETUP: Table 60, A-431 cells 10,000 cells per well, free uptake
Strand notation (5' to 3'): a small letter for the sugar, then the base; units joined by * are phosphorothioate-linked, units joined directly phosphodiester-linked; [ ] holds rarer units or linkages, { } end groups; capitals alone tell only the bases. k = constrained ethyl (cEt); [5mC] = 5-methylcytosine; d = 2'-deoxy (DNA)
Recorded IC50 for the following substances
The reply should be a number in nM, with the unit left off.

# count of solved cases: 5
{"SUBSTANCE": "958473 (kG*kT*k[5mC]*dT*d[5mC]*d[5mC]*dT*dT*dA*dG*dA*dT*d[5mC]*k[5mC]*kT*kT; antisense) [compound 958473]", "EXPERIMENTAL_TARGET": "Yap1 mRNA", "QUANTITY_NAME": "IC50", "MEAS_VALUE": 100}
{"SUBSTANCE": "958554 (kA*kA*k[5mC]*d[5mC]*dA*dT*dT*dA*dT*dT*dA*d[5mC]*dT*k[5mC]*k[5mC]*kT; antisense) [compound 958554]", "EXPERIMENTAL_TARGET": "Yap1 mRNA", "QUANTITY_NAME": "IC50", "MEAS_VALUE": 30}
{"SUBSTANCE": "958598 (k[5mC]*k[5mC]*k[5mC]*dA*dA*dT*dG*d[5mC]*dT*dA*d[5mC]*d[5mC]*d[5mC]*kA*kA*kT; antisense) [compound 958598]", "EXPERIMENTAL_TARGET": "Yap1 mRNA", "QUANTITY_NAME": "IC50", "MEAS_VALUE": 100}
{"SUBSTANCE": "958658 (kA*k[5mC]*kA*dG*dT*dA*dT*dA*dA*dT*dA*dT*d[5mC]*k[5mC]*kT*kA; antisense) [compound 958658]", "EXPERIMENTAL_TARGET": "Yap1 mRNA", "QUANTITY_NAME": "IC50", "MEAS_VALUE": 400}
{"SUBSTANCE": "958543 (kA*k[5mC]*k[5mC]*dT*dT*dA*dT*dA*dG*dT*dA*dT*dT*k[5mC]*kT*kA; antisense) [compound 958543]", "EXPERIMENTAL_TARGET": "Yap1 mRNA", "QUANTITY_NAME": "IC50", "MEAS_VALUE": 100}

## Task Please indicate IC50 recorded for 958718 (kG*kA*kA*d[5mC]*dA*d[5mC]*dT*dA*dT*dA*dG*d[5mC]*dT*kT*kG*kG; antisense) [compound 958718]
## Result 200

====

# ASSAY_REMARKS: Tolerability in Sprague-Dawley rats, plasma chemistry markers (Example 20)
# Type: in vivo
# EXPERIMENTAL_SETUP: male Sprague-Dawley rats, 50 mg/kg s.c. weekly for 6 weeks (7 doses), 48 hours after last dose
Strand notation (5' to 3'): a small letter for the sugar, then the base; units joined by * are phosphorothioate-linked, units joined directly phosphodiester-linked; [ ] holds rarer units or linkages, { } end groups; capitals alone tell only the bases. k = constrained ethyl (cEt); [5mC] = 5-methylcytosine; d = 2'-deoxy (DNA)
QUANTITY_NAME: TBIL (mg/dL)
Report the figure in mg/dL without appending any unit label.

# annotated cases, reported TBIL shown
{"SUBSTANCE": "1097224 (k[5mC]*kT*k[5mC]*dT*dT*dA*dT*dA*dT*dG*dG*dT*dT*kT*kT*kG; antisense) [compound 1097224]", "QUANTITY_NAME": "TBIL", "MEAS_VALUE": 0.07}
{"SUBSTANCE": "958499 (ATTAGAGTATGTGGCA; 3-10-3 cEt gapmer, further chemistry not given here) [compound 958499]", "QUANTITY_NAME": "TBIL", "MEAS_VALUE": 0.18}

Could you now consider this next substance?
## Task Determine from records and report TBIL for 1076453 (GTAATATTGCAATCTG; 3-10-3 cEt gapmer, further chemistry not given here) [compound 1076453]
## Result 0.13

====

# ASSAY_REMARKS: Cynomolgus monkey tolerability, body and organ weight measurements (Example 34)
# Assay type: in vivo
# EXPERIMENTAL_SETUP: cynomolgus monkeys, 35 mg/kg subcutaneously, necropsy
QUANTITY_NAME: Heart weight (g)
Please state the figure in g; there is no need to write the unit.

Example substances with recorded Heart weight:
{"SUBSTANCE": "958499 (ATTAGAGTATGTGGCA; 3-10-3 cEt gapmer, further chemistry not given here) [compound 958499]", "QUANTITY_NAME": "Heart weight", "MEAS_VALUE": 10}
{"SUBSTANCE": "1198605 (GTAATATTGCAATCTG; modified gapmer, further chemistry not given here) [compound 1198605]", "QUANTITY_NAME": "Heart weight", "MEAS_VALUE": 11}
{"SUBSTANCE": "1198623 (CTAAGTAAGGTTTCCC; modified gapmer, further chemistry not given here) [compound 1198623]", "QUANTITY_NAME": "Heart weight", "MEAS_VALUE": 9}
{"SUBSTANCE": "1198439 (AGTGTATGTCAGAAGA; sugar, 5-methylcytosine, phosphorothioate modifications, further chemistry not given here) [compound 1198439]", "QUANTITY_NAME": "Heart weight", "MEAS_VALUE": 10}
{"SUBSTANCE": "1198831 (CACTTTTACATTAGGA; chemically modified gapmer, further chemistry not given here) [compound 1198831]", "QUANTITY_NAME": "Heart weight", "MEAS_VALUE": 11}

Now for the substance whose Heart weight we want.
## Task Give Heart weight for the following substance: 1198728 (TATTAGAGTATGTGGC; modified gapmer, further chemistry not given here) [compound 1198728]
## Result 10
